The reported numbers originate from patent US6750228B1.

- targetSystem: MMP-2 (Homo sapiens)
- Construct: made in house; provided by Dr. Gregory Goldberg, Washington University
- Sequence (P08253 110-660): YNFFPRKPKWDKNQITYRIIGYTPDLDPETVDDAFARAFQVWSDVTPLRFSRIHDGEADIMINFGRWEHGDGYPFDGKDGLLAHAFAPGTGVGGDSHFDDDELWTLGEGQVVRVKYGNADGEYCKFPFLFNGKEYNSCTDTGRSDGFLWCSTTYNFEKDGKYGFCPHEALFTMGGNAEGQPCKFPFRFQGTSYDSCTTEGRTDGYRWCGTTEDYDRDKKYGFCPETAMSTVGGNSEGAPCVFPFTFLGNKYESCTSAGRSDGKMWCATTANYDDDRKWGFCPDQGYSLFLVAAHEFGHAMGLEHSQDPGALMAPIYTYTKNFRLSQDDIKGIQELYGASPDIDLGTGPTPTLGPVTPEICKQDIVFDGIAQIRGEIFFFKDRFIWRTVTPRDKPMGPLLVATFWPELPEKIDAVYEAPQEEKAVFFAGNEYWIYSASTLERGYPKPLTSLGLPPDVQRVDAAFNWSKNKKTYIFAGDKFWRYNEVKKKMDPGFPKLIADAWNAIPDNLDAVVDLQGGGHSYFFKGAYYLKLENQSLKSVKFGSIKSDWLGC
- experimentDescription: biochemical
- experimentalParameters: MMP-2 IC50 (nM)
- Method: The compounds prepared in the manner described in the Examples above were assayed for activity by an in vitro assay. […] Briefly, 4-aminophenylmercuric acetate (APMA) or trypsin-activated MMPs were incubated with various concentrations of the inhibitor compound at room temperature for 5 minutes. […] Inhibition was measured as a reduction in fluorescent intensity as a function of inhibitor concentration, using a Perkin Elmer L550 plate reader. The IC50 values were calculated from those values. […]
Counter-ions that a name gives are not always drawn.
Quick rule for you: IC50 under 2000 nM gets True, anything else gets False.

# molecule, classLabel
rows = [
    ("COCCN1CCC(C(=O)NO)(S(=O)(=O)c2ccc(N3CCC(C(=O)Nc4ccccc4)CC3)cc2)CC1 [Example 236, Monohydrochloride]", "True"),
    ("O=C(NO)C1(S(=O)(=O)c2ccc(N3CCN(c4ccccc4F)CC3)cc2)CCOCC1 [Example 83]", "True"),
    ("O=C(NO)C1(S(=O)(=O)c2ccc(Oc3ccc(C(F)(F)F)cc3)cc2)CCN(C2CC2)CC1 [Example 269]", "True"),
    ("O=C(NO)C1(S(=O)(=O)c2ccc(N3CCC(c4ccccc4O)CC3)cc2)CCOCC1 [Example 825]", "True"),
    ("CCOc1ccccc1C1CCN(c2ccc(S(=O)(=O)C3(C(=O)NO)CCOCC3)cc2)CC1 [Example 544]", "False"),
]

Turning to the following molecule.
# TODO verify IC50 < 2000 nM strictly for this molecule: O=C(C1CCN(c2ccc(S(=O)(=O)C3(C(=O)NO)CCOCC3)cc2)CC1)N1CCN(c2ccc(F)cc2)CC1 [Example 25]
True
